Test system: NCI-H522 lung
METHOD_NOTES: NCI tumour cell line growth inhibition, 48 h
MEASURED_PARAMETER: TGI (µM)

- COP(=O)(OC)C(=NCc1ccccc1)NNc1ccc([N+](=O)[O-])cc1: 38.6
- NC(=NC1CCCCCCC1)c1ccc(N2CCN(c3ccc(C(N)=NC4CCCCCCC4)cc3)CC2)cc1: 52.2
- Cc1cc(OCc2nn(CN3CCN(C)CC3)c(=S)n2/N=C/c2ccc(-c3ccc(Cl)cc3Cl)o2)ccc1Cl: 59
- Cc1ccc(NC(=O)c2cc3ccccc3c(N=Nc3ccccc3O)c2O)c(C)c1: 2.61

* * *

System: MDA-MB-231 breast
METHOD_NOTES: NCI tumour cell line growth inhibition, 48 h; in the data active = GI50 below about 0.43 µM; inactive = the rest
Outcomes: Yes (active), No (inactive)

- C=CC1=C[C@@H]2[C@@H]3O[C@]4(CC[C@H](O4)[C@@H](C)C[C@@H](O)C3=O)C[C@H](O)C3=NCC[C@@]32CC1: Yes
- C=CC(=O)N1CCN(c2nc(OC[C@@H]3CCCN3C)nc3c2CCN(c2cccc4cccc(C)c24)C3)C[C@@H]1CC#N: No
- Cn1ccnc1C(=O)/C=C/c1ccc(CC(=O)Nc2ccc(S(F)(F)(F)(F)F)cc2)cc1: No
- C/C(=C\c1ccn(-c2ccc(N)c(F)c2)n1)[C@@H]1C[C@@H]2O[C@]2(C)CCC[C@H](C)[C@H](O)[C@@H](C)C(=O)C(C)(C)[C@@H](O)CC(=O)O1: Yes
- CCN(CCNc1ccc(C)c2sc3cc(Cl)ccc3c(=O)c12)CC(C)O (centres undefined): No
- CN1CCN(c2nc(NCCCCNc3ccnc4cc(Cl)ccc34)c3ccccc3n2)CC1: No
- N#Cc1cccc(C(=O)Nc2cccc(NC(=O)c3cccc(C#N)c3)c2)c1: No
- CCc1cccc2c3c(sc12)C(c1ccc(Cl)cc1)C(C#N)=C(N)O3 (centres undefined): No
- C/C([O-])=C1\Cc2ccccc2C1=O.C/C([O-])=C1\Cc2ccccc2C1=O.CC[O-].CC[O-].[Ti+4]: No
- COc1ccc(C(=O)COc2cccc(/C=C3\CSc4ccccc4C3=O)c2)cc1: No
- Cc1nc2cnc3cc(F)c(-c4ccc(Oc5ncccn5)cc4Cl)cc3c2n1[C@H]1CCN(C(=O)CO)C[C@@H]1F: Yes
- N=c1c2c(-c3ccccc3)c(-c3ccccc3)n(Cc3ccccc3)c2ncn1CCCO: No
- O=C1/C(=C/c2ccc([N+](=O)[O-])o2)Oc2ccc(Br)cc21: No
- O=Cc1cn(Cc2cccc(Cl)c2)c2ccccc12: No
- CCCCCCCCCCCCCCCC[N+](C)(C)CCN(Cc1ccc(OC)cc1)c1ncccn1: No
- O=C1C=C[C@@]23C[C@@H](Nc4c(O)c5c6c(c42)=NCCC=6C=N5)SC3=C1: No
- NC(=O)c1cc([N+](=O)[O-])c(Cl)c([N+](=O)[O-])c1: No
- COc1cc(C(O)c2nc3ccccc3s2)cc(OC)c1OC (centres undefined): No
- NC1=C(Br)C(=O)c2ncccc2C1=O: No

* * *

System: HCT-116 colon
METHOD_NOTES: NCI tumour cell line growth inhibition, 48 h
MEASURED_PARAMETER: TGI

- Fc1cccc2cc3ccc4cccc5ccc(c12)c3c45: > 100 µM
- O=c1[nH]c(=O)n(COCCO)c2ccc(Br)cc12: > 100 µM
- CC1CC2C(=O)N(c3ccccc3)C(=O)C2c2c1c1ccccc1n2Cc1ccccc1 (stereo not drawn): > 100 µM
- O=C(Cn1cc(F)c(=O)[nH]c1=O)C12CC3CC(CC(C3)C1)C2: > 100 µM
- O=C(c1ccccc1)[C@H]1Nc2ccc(Cl)cc2[C@H]2OCCC[C@@H]12: 31.5 µM
- O=C(O)CSCC(=O)O: > 100 µM
- O=C(O)C12C3C4C1C1C2C3C1(Br)C41OCCO1 (stereo not drawn): > 100 µM
- C(=C\c1nccs1)/c1cccc(/C=C/c2nccs2)n1: > 50 µM

Attribution: PubChem BioAssay (NCI)
